Some substances, each annotated with its measured GI50.
Tested on: KM-20L2
Experiment: NCI tumour cell line growth inhibition, 48 h
Entries with a potency or affinity are not part of this list. Only a part of the results of these assays is listed, not drawn at random.
Reply numerically in µM, unit not repeated.

Fill in: GI50 of [Bis(aminomethyl)diethylsilane]tetrachloroplatinum(IV), CHEMBL2146203 is ___
1.45

###

Some substances, each annotated with its measured GI50.
Tested on: DLD-1
Assay: NCI tumour cell line growth inhibition, 48 h
Entries with a potency or affinity are not part of this list. These assays gave more results; the selection is not random.
Reply numerically in µM, unit not repeated.

Before answering, review these 5 worked examples.
mu-(1,7-nanodiamine-N,N')bis-(cis-aminedichloroplatimum (II)), CHEMBL2146215	36.2
CISPLATIN, CHEMBL11359	6.03
[Bis(aminomethyl)pentamethylenesilane]dichloropaltinum(II), CHEMBL2146202	31.1
[Bis(aminomethyl)diethylsilane]tetrachloroplatinum(IV), CHEMBL2146203	8.65
[Bis(aminomethyl)tetramethylenesilane]dichloropaltinum(II), CHEMBL2146205	39.1

// next entry
Fill in: GI50 of [Bis(aminomethyl)pentamethylenesilane]tetrachloropaltinum(IV), CHEMBL2146204 is ___
4.58

###

Some substances, each annotated with its measured log10 of GI50.
Test system: RXF 631
Assay: NCI tumour cell line growth inhibition, 48 h
Potency and affinity values are given separately. These assays gave more results; the selection is not random.
Recorded GI50 (log10, µM)

cis-Bis[[(trimethylsilyl)methyl]amino]tetrachloroplatinum(IV), CHEMBL2146191	0.53
[Bis(aminomethyl)tetramethylenesilane]dichloropaltinum(II), CHEMBL2146205	1.69
[Bis(aminomethyl)tetramethylenesilane]tetrachloropaltinum(IV), CHEMBL2146189	0.86

Fill in: log10 of GI50 of [Bis(aminomethyl)dimethylsilane]tetrachloroplatinum(IV), CHEMBL2146190 is ___
1.54

Fill in: log10 of GI50 of [Bis(aminomethyl)pentamethylenesilane]dichloropaltinum(II), CHEMBL2146202 is ___
1.26

###

Tested on: KM-20L2
Experiment: NCI tumour cell line growth inhibition, 48 h
Measured potencies and affinities stand elsewhere. Only a part of the results of these assays is listed, not drawn at random.
Some substances, each annotated with its measured GI50.
Reply numerically in µM, unit not repeated.

Before answering, review these 3 worked examples.
mu-(1,7-nanodiamine-N,N')bis-(cis-aminedichloroplatimum (II)), CHEMBL2146215	35.9
[Bis(aminomethyl)tetramethylenesilane]dichloropaltinum(II), CHEMBL2146205	24.4
[Bis(aminomethyl)pentamethylenesilane]tetrachloropaltinum(IV), CHEMBL2146204	3.14

Fill in: GI50 of [Bis(aminomethyl)dimethylsilane]tetrachloroplatinum(IV), CHEMBL2146190 is ___
3.58

Fill in: GI50 of CISPLATIN, CHEMBL11359 is ___
7.48

Fill in: GI50 of [Bis(aminomethyl)tetramethylenesilane]tetrachloropaltinum(IV), CHEMBL2146189 is ___
2.99
